- Test system: human blood (whole blood clot lysis, tPA)
- assay-protocol: Thromboelastometry (ROTEM, modified in-tem with tPA): whole blood clot formation and lysis, human blood
- conditions: Homo sapiens, read-out: EC50LT (effective concentration to delay lysis time by 50%)
pEC50: −log10 of the molar value.
property-label: pEC50

Please fill in: pEC50 reported for O=C(NO)C1(S(=O)(=O)c2ccc(Oc3cccc(OC(F)(F)F)c3)cc2)CCC2(CCNCC2)C1 (stereo not shown) = > 6.00

* * *

- Tested on: human blood (whole blood clot lysis, tPA)
- assay-protocol: Thromboelastometry (ROTEM, modified in-tem with tPA): whole blood clot formation and lysis, human blood
- conditions: Homo sapiens, read-out: EC50LT (effective concentration to delay lysis time by 50%)
property-label: EC50

# compound O=C(NO)C1(S(=O)(=O)c2ccc(NC3CCCCC3)cc2)CCC2(CCNCC2)C1 (stereo not shown) ; its EC50 = < 1 µM

Note to self: EC50 recorded for O=C(NO)C1(S(=O)(=O)c2ccc(OCCN3CCCCC3)cc2)CCC2(CCNCC2)C1 (stereo not shown) was < 1 µM

EC50 reported for this compound COC1CCN(c2ccc(S(=O)(=O)C3(C(=O)NO)CCC4(CCNCC4)C3)cc2)CC1 (stereo not shown) : 1 to 10 µM

The recorded EC50 for entry COC(=O)c1cccc(Oc2ccc(S(=O)(=O)C3(C(=O)NO)CCC4(CCNCC4)C3)cc2)c1 (stereo not shown) equals 1 to 10 µM

// recorded EC50 for COC(=O)c1ccc(CNc2ccc(S(=O)(=O)C3(C(=O)NO)CCC4(CCNCC4)C3)cc2)cc1 (stereo not shown) : > 25 µM

get_value(item= O=C(NO)C1(S(=O)(=O)c2cccc(OCc3ccc(OC(F)(F)F)cc3)c2)CCC2(CCNCC2)C1 (stereo not shown) , readout=EC50) returns 1 to 10 µM

The compound identified as O=C(NO)C1(S(=O)(=O)c2ccc(Cc3ccccc3)cc2)CCC2(CCNCC2)C1 (stereo not shown) registered its EC50 at > 25 µM

What the record says about O=C(NO)C1(S(=O)(=O)c2cccc(NC3CCCCC3)c2)CCC2(CCNCC2)C1 (stereo not shown) : EC50 is > 25 µM

***
EC50 for CCCN1CCC2(CC1)CCC(C(=O)NO)(S(=O)(=O)c1ccc(Oc3ccc(OC)cc3)cc1)C2 (stereo not shown) is < 1 µM

Recorded EC50 (compound O=C(NO)C1(S(=O)(=O)c2ccc(OC3CCCCC3)cc2)CCC2(CCNCC2)C1 (stereo not shown) ): 1 to 10 µM

compound Nc1ccc(S(=O)(=O)C2(C(=O)NO)CCC3(CCNCC3)C2)cc1 (stereo not shown) , EC50 observed: > 25 µM

Query COc1cc(S(=O)(=O)C2(C(=O)NO)CCC3(CCNCC3)C2)ccc1NC1CCCCC1 (stereo not shown) yields EC50 of > 25 µM

Just so you know, measured EC50 for CC(=O)Nc1ccc(Oc2ccc(S(=O)(=O)C3(C(=O)NO)CCC4(CCNCC4)C3)cc2)cc1 (stereo not shown) came out at < 1 µM

Notebook: COC1CCC(Oc2ccc(S(=O)(=O)C3(C(=O)NO)CCC4(CCNCC4)C3)cc2)CC1 (stereo not shown) , EC50 read as < 1 µM

Sure, the documented EC50 for O=C(Nc1ccc(S(=O)(=O)C2(C(=O)NO)CCC3(CCNCC3)C2)cc1)C1CCCCC1 (stereo not shown) is < 1 µM

Record COc1ccc(C(=O)Oc2cccc(S(=O)(=O)C3(C(=O)NO)CCC4(CCNCC4)C3)c2)cc1 (stereo not shown) . Reported EC50: < 1 µM

Each recorded value in this set is attributed to patent US9440989B2.
